Each recorded value in this set is attributed to the nanobody polyreactivity screen of Harvey et al. (2022).

experimental-details: yeast display, Sf9 membrane polyspecificity reagent, FACS + sequencing; frameworks hold sequencing errors
value-kind: polyreactivity (PSR sort gate)

QVQLVESGGGLVQAGGSLRLTCAASGRIFGVYVMGWYRQAPGKERELVAAISWGGGTYYADSVKGRFTISRDNAKNNVYLQMNSLKPEDTSVYYCNAESYYTMYYWGQGTQVNVSS low polyreactivity
QVQLVESGGGLVQAGGSLRLSCAASGFTFVYNALGWYRQAPGKERELVAAISGSGGSTYYADSVKGRFTISRDNAKNTVYLQMNSLKPEDTSVYYCNAVPSWRWEYDHWGQGTQVTVSS high polyreactivity
QVHLVESGGGLVQAGGSLRLSCAASGGIFYINSMGWYRQAPGKERELVAAITGGASTYYADSVKGRFTISRDNAKNTVYLQMNSLNPEDTAVYYCAARPSSRRVYPAYLYGYWGQGTQVSVSS high polyreactivity
QVQLVESGGGLVQAGGSLRLSCAASGRTFYRYAMGWYRQAPGKERELVAAISSGGSTYYADSVKGRFTISRDNAKNTVYLQMNSLKPEDTAVYYCNADYGRRNHMDYWGQGTQVTVSS low polyreactivity
QVQLVESGGGLVQAGGSLRLSCAASGFTFSGYAMGWYRQAPGKERELVAASTRRTGTTYYADSVKGRFTISRDNAKNTVYLQMNSLKPEDTAVYYCNKGYPSPPAGEYGYWGQGTQVTVSS high polyreactivity
QVQLVESGGGLVQAGGSLRLSCAASGFTFKYNAMGWYRQAPGKERELVAAISSSGSTNYADSVKGRFTISRDNAKNTVYLQMNSLKPEDTAVYYCAARWRSVLAAGTRPVSFDYWGQGTQVTVSS low polyreactivity

Enquiry: Record request: polyreactivity (PSR sort gate) value, item QVQIVESGGGLVQEGGSLRLRCAASGFTFGYYRMGWYRQAPGKERELVAAISRSAGSTYYADSVKGRFTISRDNAKNTVYLQMNSLKPEDTAVYYCNAAVFRTEGGYSTFNYWGQGSQVTVSS
Return: high polyreactivity

Enquiry: Another sequence: QVQLVESGGGLVQAGGSLRLSCAASGFTFDINTMGWYRQAPGKERELVAAITYSGGSTYYADSVKGRFTISRDNAKNTVYLQMNSLKPEDTAVYYCATTWYFVASWYVAIYDYWGQGTQVTVSS
Return: low polyreactivity

Enquiry: Another sequence: QVHLGESGGGLVQAGGSLRLSCAASGSIFGYYAMGWYRQAPGKERELVAAITFRDGSTYYADSVKGRFTISRDNAKNTVYLQMNSLKPEDTAVYYCAARVTYSRGYRGGSRTKYDYWGQGTQVTVSS
Return: low polyreactivity

Enquiry: Another sequence: QVQLVESGGGLVQAGGGLRLSCAASGRTIPTYAMGWYRQAPGKERELVATITSAGSTNYADSVKGRFTISRDNAKNTVYLQMNSLKPEDTAVYYCAARRRLAWGQGTQVTVSS
Return: high polyreactivity

Enquiry: Another sequence: QVQLVESGGGLVQAGGSLRLSCAASGRIFARYAMGWYRPAPGKERELVAAITKSVGSTYYADSVKGRFTISRDNAKYTVYLQMNRLKPEDTAVYYCNAVARGYGYDYWGQGTQVTVSS
Return: high polyreactivity

Enquiry: Another sequence: QVQLVESGGGLVQAGGSLRLSCAASGGTFRYYAMGRYRPAPGKERDLVARIRYNGGSTYYADSVKGRFTISRDNAKNTVSLQMKSLKPEDTAVDYCAAVGRYPRTWMNYWGQGNQVTVSS
Return: high polyreactivity

Enquiry: Another sequence: QVQLVESGGGLVQAGGSLRLSCAASGITFGFNAMGWYRQAPGKERELVAAITWSVGRTYYADSVKGRFTISRDNAKNTVYLQMNSLKPEDTAVYYCAKDFEAGDDYFAYDYWGQGTQVTVSS
Return: low polyreactivity

Enquiry: Another sequence: QVQLVESGGGLVQAGGSLRLSCAASGSTFYDYAMGWYRQAPGKERELVAAISRGGSTYYADCVKGRFTISRDNAKNTVYLQMNSLKPEDTAVYYCAAGRSYDSGFYYWGQGTQVTVSS
Return: low polyreactivity

Enquiry: Another sequence: QVQLVESVGGLVQAGGRLRLSCAASGSIFLYNAMGWYRQAPGKERELVAVINGRGGTYYADSVKGRFTISRDNAKNTVYLQMNSLKPEDTAVYYCATGYPPSAGYDSVRFEDRDSWGQGTQVTVSS
Return: low polyreactivity

Enquiry: Another sequence: QVQLVESGVGLVQAGGSLRLSCAGSGFNFIANAMGWYRQAPGKERELVAAISDGGSTYYADSVKGRFTISRDNAKNTVYLQMNSLKPEDTAVYYCAKDVTWAGHYDYWGQGTQVTVSS
Return: low polyreactivity

Enquiry: Another sequence: QVQLQESGGGLVQAGGSLRLSCAASGNISQVGVMGWYRQAPGKERELVATINFGGSSYYADSVKGRFTISRDNAKITVYLQMNSLKPEDTAVSYCNAKAYVWYLYDEFGYWGQGTQVTVSS
Return: low polyreactivity

Enquiry: Another sequence: QFQLVESGGGLVQARGSLRLSCAASGSTFRYYGMGWYRQTPGKERELVAAISSSGGSTYYADSVKGRFTISRDNAKITVYLKMNSLKPEDNAVYYCAAGSRFVSSRLYYWGQGTQVTVSS
Return: high polyreactivity

Enquiry: Another sequence: QVQLVESGGGLVQAGGSLRLSCAASGRTFGIYAMGWYRQAPGKERELVATISWRGGSTYYADSVKGRFTISRDNAKNTVYLQMNSLKPEDTAVYYCAAGYYPYWGQGTQVTVSS
Return: low polyreactivity

Enquiry: Another sequence: QVQLVESGGGLVQAGGSLRLSCAASGSTFPYNAMGWYRQAPGKERELVAAITGRGGSTYYADSVKGRFTISRDNAKNTVYLQMNSLKPEDTAVYYCAARYLYLLYYWGQGTQVTVSS
Return: high polyreactivity

Enquiry: Another sequence: QVQLVESGGGLVEAGGRLRLSCAAYGRIFYYNGMGCYRQAPGKERELVAAITSGGSTNYADSEKGRFTISRDNAKNNVYLQMKSVKPEDTAVSYCAADYYYYVAGVHFDYWGQGTQVTVSS
Return: low polyreactivity
